biological target: human NMB receptor (BB1) (Homo sapiens, UniProt P28336); construct: expressed in transfected cells; host or cells: CHO-K1; assay: BB1 binding assay ([125I][Tyr4]bombesin, CHO-K1 cell membranes)
Sequence (P28336 whole entry): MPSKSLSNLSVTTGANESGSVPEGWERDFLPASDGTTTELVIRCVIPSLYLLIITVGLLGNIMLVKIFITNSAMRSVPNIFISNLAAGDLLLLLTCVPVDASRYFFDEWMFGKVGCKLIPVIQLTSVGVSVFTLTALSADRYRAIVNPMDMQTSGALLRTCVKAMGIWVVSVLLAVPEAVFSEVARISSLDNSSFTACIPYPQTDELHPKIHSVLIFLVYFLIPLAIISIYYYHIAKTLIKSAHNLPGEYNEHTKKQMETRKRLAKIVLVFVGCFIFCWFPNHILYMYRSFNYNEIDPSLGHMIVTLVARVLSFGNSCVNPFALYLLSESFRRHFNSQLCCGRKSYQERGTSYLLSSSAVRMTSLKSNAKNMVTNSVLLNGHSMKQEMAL
Measurement name: pIC50
Kindly note that pIC50 refers to -log10 of the concentration in mol/L and answer with the value alone.

Chemical structure	pIC50
C[C@@](Cc1c[nH]c2ccccc12)(NS(=O)(=O)c1cccc(C(F)(F)F)c1)C(=O)NCC1(c2ccccn2)CCCCC1	6.36

// pIC50 value for C[C@@](Cc1c[nH]c2ccccc12)(NS(=O)(=O)c1ccc(F)c(Cl)c1)C(=O)NCC1(c2ccccn2)CCCCC1 : 6.55

According to the records, this compound C[C@@](Cc1c[nH]c2ccccc12)(NS(=O)(=O)c1cccc([N+](=O)[O-])c1)C(=O)NCC1(c2ccccn2)CCCCC1 displays pIC50 of 6.68

Per the record, C[C@@](Cc1c[nH]c2ccccc12)(NS(=O)(=O)c1cc(Cl)sc1Cl)C(=O)NCC1(c2ccccn2)CCCCC1 has pIC50 of 6.67

----------
target: UniProt P30550
Sequence (P30550 whole entry): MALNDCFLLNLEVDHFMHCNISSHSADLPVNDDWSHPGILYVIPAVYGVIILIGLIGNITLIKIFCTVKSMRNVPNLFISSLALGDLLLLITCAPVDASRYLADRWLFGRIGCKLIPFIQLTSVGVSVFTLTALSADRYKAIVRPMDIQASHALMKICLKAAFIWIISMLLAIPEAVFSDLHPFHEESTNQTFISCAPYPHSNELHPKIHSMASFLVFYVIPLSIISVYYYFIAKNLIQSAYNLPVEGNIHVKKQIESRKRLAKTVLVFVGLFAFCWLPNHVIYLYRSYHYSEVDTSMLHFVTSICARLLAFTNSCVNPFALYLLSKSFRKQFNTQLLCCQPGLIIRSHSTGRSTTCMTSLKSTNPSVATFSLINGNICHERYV
Measurement name: IC50 (nM)
Your answer should be a plain number; it is taken to be in nM.

Short answer on UniProt P30550 for C[C@@](Cc1c[nH]c2ccccc12)(NS(=O)(=O)c1cccc([N+](=O)[O-])c1)C(=O)NCC1(c2ccccn2)CCCCC1 , IC50: 1960
